Every entry's value here was drawn from patent US20120316071A1.

Biological target: T1, Recombinant Human DLL4 (R&D Systems Cat#1506-D4/CF) (human, UniProt Q9NR61 27-524)
T1 construct: Bought recombinant protein; also called delta-like protein 4; Delta-like 4
Experiment: ELISA, DLL4 coated on plate, Fab at 0.74 nM

| BINDER | ELISA signal |
| --- | --- |
| Fab VH5-51_IGHD5-18*01>3_IGHJ4*01 G100K/G104T S28R (H:KT S28R) & V3-4_IGLJ1*01 (Fab, V domains shown, Fab expressed in E. coli; Plasmid A adds CH1 with His6 and Flag tags to the heavy chain; Plasmid E adds lambda CL to the light chain; also called H:KT S28R & L:wt; G100K/G104T S28R & parent) VH: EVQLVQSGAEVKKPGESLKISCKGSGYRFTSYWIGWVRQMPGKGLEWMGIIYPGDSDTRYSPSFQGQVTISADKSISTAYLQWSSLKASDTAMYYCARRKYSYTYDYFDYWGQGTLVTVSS VL: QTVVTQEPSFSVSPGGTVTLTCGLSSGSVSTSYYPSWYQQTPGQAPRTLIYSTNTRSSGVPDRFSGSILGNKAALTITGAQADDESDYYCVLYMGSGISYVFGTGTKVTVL | 0 |
| Fab VH5-51_IGHD5-18*01>3_IGHJ4*01 G100K/G104T G24T/S28R/G35V (H:KT TRV) & V3-4_IGLJ1*01 M94R/S96M (L:RM) (Fab, V domains shown, Fab expressed in E. coli; Plasmid A adds CH1 with His6 and Flag tags to the heavy chain; Plasmid E adds lambda CL to the light chain; also called H:KT TRV & L:RM; G100K/G104T G24T/S28R/G35V & M94R/S96M) VH: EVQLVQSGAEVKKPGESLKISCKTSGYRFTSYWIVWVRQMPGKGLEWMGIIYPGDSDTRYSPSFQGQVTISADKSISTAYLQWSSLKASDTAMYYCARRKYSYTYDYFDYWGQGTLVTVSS VL: QTVVTQEPSFSVSPGGTVTLTCGLSSGSVSTSYYPSWYQQTPGQAPRTLIYSTNTRSSGVPDRFSGSILGNKAALTITGAQADDESDYYCVLYRGMGISYVFGTGTKVTVL | 0.006 |
